# Lookup of reported growth keyed by entry
- System: A549/ATCC NSCLC
- methodNotes: NCI-60 one-dose screen, 48 h (100 = growth as untreated, 0 = no growth, -100 = all killed)
- runConditions: 10 µM unless noted
About 83,000 compounds went through this panel and 20% of them were active in at least one assay; those are over-represented in the sample as a whole. Activity calls are given as the source filed them. How the source made its calls: active means growth percent below 10; inactive means the rest.

Reference set (5 entries):
                                   compound  assayreadout              reportedvalue
0  CN1CCN(C(=O)OCc2nc3c(N4CCOCC4)nc(Cl)nc3n2C)CC1        growth           25.1% (inactive)
1  CN1C(=O)/C(=C/c2ccc(C(=O)Nc3ncc(Cc4ccccc4Cl)s3)cc2)SC1=S        growth           72.2% (inactive)
2  Clc1ccc(Nc2nc(Nc3ccc(Cl)cc3)nc(Nc3ccc(-c4cc(-c5cccc(Cl)c5)on4)cc3)n2)cc1        growth           91.3% (inactive)
3  COc1ccc(CN2CCc3c(Cl)nc(N)nc3C2=O)c(OC)c1        growth  35.4% [100 µM] (inactive)
4  Cn1ccnc1CN1CCSC(C(=O)Nc2ccccc2)C1 (stereo not given)        growth           83.8% (inactive)

Give reported growth for COc1ccc(Cn2cc(C(=O)Nc3cccnc3Nc3ccccc3)nn2)cc1 (A549/ATCC NSCLC)
99.3% (inactive)

Fill in growth for O=C1C=CC(=O)N1c1ccc2ccccc2c1 tested with A549/ATCC NSCLC.
99% (inactive)

Look up and report growth, with A549/ATCC NSCLC as system, for Cc1ccc(NC(=O)N/C(N)=N/c2nc(=O)c3ccccc3s2)cc1
103% (inactive)

Report measured growth on A549/ATCC NSCLC; entry: COc1cc(/C=C2\CCC/C(=C\c3cc(CN4CCCC4)c(O)c(OC)c3)C2=O)cc(CN2CCCC2)c1O
43.7% (inactive)

Write down measured growth (A549/ATCC NSCLC) for this compound. Cc1ccc(-c2nc(C#N)c(S(=O)(=O)N(C)C)o2)cc1
102% (inactive)

* * *

- Tested on: A498 renal
- methodNotes: NCI-60 one-dose screen, 48 h
- runConditions: 10 µM unless noted
This is part of a sample that, as a whole, favours compounds with a hit. Of some 83,000 tested, about 20% had one in any assay. Active and inactive are the calls of the source. The calls were made as follows: active = growth percent below 10; inactive = the rest.
Choose the fitting class; nothing outside active, inactive is accepted.

Previously resolved entries follow.
molecule	group
Cn1c(=O)c2c(nc(Nc3cc(=O)[nH]c(=O)[nH]3)n2Cc2ccccc2)n(C)c1=O	active
COc1ccc2nc3cc(Cl)ccc3c(NCCCNCCC(C)O)c2c1 (centres undefined)	active
CCOC(=O)c1nc2c3ccccc3cnn2c1C(=O)c1ccc(OC)cc1	inactive
CN(C)c1ccc2nc3ccc(=O)cc-3sc2c1	inactive

Assay result, entry C/C=C(/C)C(=O)O[C@@H]1CC(C)(C)CC2C34OC(=O)[C@@]21CC[C@@]3(C)[C@]1(C)CCC2C(C)(C)C(=O)CC[C@]2(C)C1C[C@@H]4Cl (some centres undefined) — outcome?
inactive

// return assay outcome for Cc1ccc(C(=O)Nc2ccc(CN3CCN(C)CC3)c(C(F)(F)F)c2)cc1C#Cc1cnc(N)cc1C#N
active

// outcome(item) with item = CC(=O)N1N=C(c2ccc(Nc3nc(Nc4ccc(F)cc4)nc(Nc4ccc(F)cc4)n3)cc2)CC1c1ccccc1 (centres undefined)
inactive

Outcome logged for [2H]C([2H])([2H])Oc1cc(F)ccc1/C=C/C(=O)/C=C(/C=C/c1ccc(F)cc1OC([2H])([2H])[2H])OB(F)F in this assay:
inactive

Hello, I am checking results. What call was entered for Cc1nonc1-c1ccc2c(c1)OCO2 ?
inactive

Ref: PubChem BioAssay (NCI)
